test system: SW-620 colon; assay: NCI tumour cell line growth inhibition, 48 h
measurement type: TGI

Solved cases (5 shown):
1) O=c1nc2occc2cn1C1CC(O)C(CO)O1 (stereo unspecified) | > 100 µM
2) CC(=O)n1nc(-c2ccccc2)n(/N=C/c2ccc([N+](=O)[O-])cc2)c1=O | > 100 µM
3) Cc1ccc(/C=N/n2c(=O)[nH]c3ccccc3c2=O)cc1 | > 100 µM
4) C[As](C)SC1OC(CO)C(O)C1O (stereo unspecified) | 1.61 µM
5) C[C@]12C=CC(=O)C=C1CC[C@H]1[C@@H]3C[C@@H](O)[C@](O)(C(=O)CO)[C@@]3(C)C[C@H](O)[C@@]12F | > 100 µM

// below: TGI requested for another compound
Measured TGI, NNC(N)Nc1ccccc1 (stereo unspecified) : > 100 µM

---

test system: SW-620 colon; assay: NCI tumour cell line growth inhibition, 48 h
measurement type: TGI

Solved cases (10 shown):
1) NS(=O)(=O)c1nn2c(Br)c(-c3ccccc3)nc2s1 | 12.4 µM
2) COc1ccc(C2S/C(=C\c3ccccc3O)C(=O)N2NC(=O)Cc2ccccc2)cc1 (stereo not given) | > 100 µM
3) S=C(c1c[nH]c2ccccc12)N1CCOCC1 | > 100 µM
4) Cn1c(=O)c2c(nc(Nc3cc(=O)[nH]c(=O)[nH]3)n2Cc2ccccc2)n(C)c1=O | > 100 µM
5) O=C(CC(=O)Nc1cccc(C(=O)O)c1)Nc1cccc(C(=O)O)c1 | > 100 µM
6) COC(=O)Cc1cc(O)c(C/C=C(\C)CC/C=C(\C)C(O)C(=O)C=C(C)C)cc1O (stereo not given) | 87.8 µM
7) CS(=O)(=O)N/N=C/CN1C(=O)c2ccccc2C1=O | > 100 µM
8) Nc1nc(Cl)c(N)c(NC23CC4CC(CC(C4)C2)C3)n1 | 2.94 µM
9) NC(=NCCCOc1ccc(Cl)cc1)Nc1ccc(C(F)(F)F)cc1 | 5.99 µM
10) CC1=Nc2ccccc2C1C(Cc1ccccc1N)c1c(C)[nH]c2ccccc12 (stereo not given) | 34.7 µM

Measured TGI, `c1ccc2sc(C3(N4CCCC4)CCCCCC3)cc2c1` : 34.4 µM

Measured TGI, `O=C(O)CNc1cc(-c2ccccc2)nc(NCC(=O)O)n1` : > 100 µM

Measured TGI, `CN(c1ccc(Cl)cc1)S(=O)(=O)c1cccc([N+](=O)[O-])c1` : > 100 µM

Measured TGI, `C=C(F)C(=O)N1CCN(c2nc(OC[C@@H]3CCCN3C)nc3c2CCN(c2cccc4cccc(Cl)c24)C3)C[C@@H]1CC#N` : 2.52 µM

Measured TGI, `COC(=O)c1cc2c3ccccc3n(C(C)=O)c2cn1` : > 100 µM

Measured TGI, COc1ccc(C2CC(c3cccc(Nc4ccncc4)c3)=NN2c2cc(Cl)cc(Cl)c2)cc1 (stereo not given) : 3.26 µM

---

test system: SK-MEL-2 melanoma; test: NCI tumour cell line growth inhibition, 48 h
measurement type: TGI

Solved cases (5 shown):
1) CCOC(=O)C1(Cc2ccc3c(c2)CCC3)Cc2cc3c(cc2C1)CCC3 | > 100 µM
2) N#C/C(C(=O)Nc1ccccc1)=C(/N)N1CCOCC1 | > 100 µM
3) Ic1ccc(Nc2nc3nonc3nc2Nc2ccc(I)cc2)cc1 | 0.692 µM
4) CCOP(=O)(Cc1ccc(CP(=O)(OCC)OCC)n1C)OCC | > 100 µM
5) CCC1(CC)SCc2nc3ccccc3n21 | 85.3 µM

Measured TGI, `CS(=O)(=O)N/N=C/CN1C(=O)c2ccccc2C1=O` : > 100 µM

Measured TGI, COc1ccc2c(c1)CCC1C2CC[C@@]2(C)C1CC1=CC(COC(C)=O)C3C(=O)c4ccccc4C(=O)C3C12 (some centres not stated) : > 100 µM

Measured TGI, `O=S(=O)(c1ccccc1)n1c2cc3cccnc3nc2c2cccnc21` : > 100 µM

Reference for the values: PubChem BioAssay (NCI)
